# tgt: UniProt G1T4Q9
# Sequence (G1T4Q9 1-263): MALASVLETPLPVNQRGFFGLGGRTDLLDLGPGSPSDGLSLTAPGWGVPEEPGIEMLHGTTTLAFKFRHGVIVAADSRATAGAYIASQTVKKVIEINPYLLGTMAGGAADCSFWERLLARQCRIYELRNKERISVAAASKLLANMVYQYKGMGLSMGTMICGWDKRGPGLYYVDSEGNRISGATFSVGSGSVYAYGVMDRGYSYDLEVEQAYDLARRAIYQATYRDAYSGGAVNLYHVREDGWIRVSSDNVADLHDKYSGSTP
# test name: In vitro inhibition of 20S proteasome chymotrypsin-like activity (suc-LLVY-AMC)
# cond: Proteasome Chymotrypsin-like EC50, Table 12
pEC50: −log10 of the molar value.

- molecule: "C[C@@]12OC(=O)[C@]1(C(O)[C@@H]1C=CCCC1)NC(=O)[C@@H]2CCI (single isomer, unassigned)"
  pEC50: 8.52
- molecule: "C[C@@]12OC(=O)[C@]1([C@@H](O)[C@@H]1C=CCCC1)NC(=O)[C@@H]2CCO"
  pEC50: 8.10
- molecule: "C[C@H]1C(=O)N[C@@]2(C(O)[C@@H]3C=CCCC3)C(=O)O[C@@]12C (single isomer, unassigned)"
  pEC50: 8.11

----------
# tgt: trypsin-like activity of purified rabbit muscle 20S proteasome (Oryctolagus cuniculus, UniProt G1SWK8)
# Sequence (G1SWK8 1-271): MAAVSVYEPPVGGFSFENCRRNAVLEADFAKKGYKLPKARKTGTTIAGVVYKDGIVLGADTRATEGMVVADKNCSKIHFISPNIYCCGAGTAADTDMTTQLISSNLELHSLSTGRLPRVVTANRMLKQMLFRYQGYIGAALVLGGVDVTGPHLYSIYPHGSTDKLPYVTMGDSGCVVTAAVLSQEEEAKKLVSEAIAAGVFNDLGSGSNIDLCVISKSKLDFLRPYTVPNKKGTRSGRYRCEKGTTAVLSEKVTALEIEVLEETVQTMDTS
# test name: biochemical
value type: EC50 (nM)

- molecule: "CCC(=O)OCC[C@H]1C(=O)N[C@@]2([C@@H](O)[C@@H]3C=CCCC3)C(=O)O[C@@]12C"
  value type: "EC50"
  quantity unit: "nM"
  comparison sign: "="
  value measured: 289
- molecule: "C[C@@]12OC(=O)[C@]1([C@@H](O)[C@H]1CCC[C@H](Cl)[C@H]1O)NC(=O)[C@@H]2CCCl"
  value type: "EC50"
  quantity unit: "nM"
  comparison sign: ">"
  value measured: 20000
- molecule: "C[C@@H]1C(=O)N[C@@]2([C@@H](O)[C@@H]3C=CCCC3)C(=O)O[C@@]12C"
  value type: "EC50"
  quantity unit: "nM"
  comparison sign: ">"
  value measured: 20000
- molecule: "CC[C@@H]1C(=O)N[C@@]2([C@@H](O)[C@@H]3C=CCCC3)C(=O)O[C@@]12C"
  value type: "EC50"
  quantity unit: "nM"
  comparison sign: ">"
  value measured: 20000
- molecule: "C[C@@]12OC(=O)[C@]1([C@@H](O)C1CCCCC1)NC(=O)[C@@H]2CCBr"
  value type: "EC50"
  quantity unit: "nM"
  comparison sign: "="
  value measured: 107
- molecule: "C[C@@]12OC(=O)[C@]1([C@@H](O)[C@H]1CCCC3OC31)NC(=O)[C@@H]2CCCl (single isomer, unassigned)"
  value type: "EC50"
  quantity unit: "nM"
  comparison sign: "="
  value measured: 90
- molecule: "C[C@@]12OC(=O)[C@]1([C@@H](O)[C@@H]1C=CCCC1)NC(=O)[C@@H]2CCO"
  value type: "EC50"
  quantity unit: "nM"
  comparison sign: "="
  value measured: 879
